test: ACEA_ER_AUC_viability: ACEA Biosciences xCELLigence Real-Time Cell Analysis on Estrogen Receptor Agonism for Viability (AID 2283782);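 further: continuous compound exposure with impedance area under curve over 80 h; hit means loss of impedance signal meaning reduced cell growth or viability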
Records with an inconclusive call do not appear. Activity calls are given as the source filed them. How the source made its calls: active means hit-call score of the fitted dose curve at least 0.9, where 1 is the maximum; inconclusive means response in the unintended direction; inactive means score below 0.9.
Give one outcome, nothing more. List: Yes for active, No for inactive

## Task I would be grateful if you could indicate the recorded call for `COC(=O)[C@H]1[C@H]2C[C@@H]3c4[nH]c5cc(OC)ccc5c4CCN3C[C@H]2C[C@@H](OC(=O)c2cc(OC)c(OC)c(OC)c2)[C@@H]1OC` .
## Result Yes

Others:
## Task Please state the recorded outcome for this compound: `O=C(O)CN(CC(=O)O)CC(=O)O`
## Result No

## Task For this compound, state the assay outcome: `OCC(CO)n1cnc(-c2ccc(F)cc2)c1-c1ccnc(Oc2ccccc2)n1`
## Result No

## Task Please state the recorded outcome for this compound: `CCCCCCC(C=O)=Cc1ccccc1`
## Result Yes

## Task Dear colleague, could you share the recorded outcome for `CC1=C(C)S(=O)(=O)CCS1(=O)=O` when you have a moment?
## Result No

## Task # lookup: test call for `CN(C)CCCN1c2ccccc2Sc2ccc(Cl)cc21`
## Result Yes

## Task Please indicate how the test categorized `N[C@@H](Cc1c[nH]c2ccccc12)C(=O)O` .
## Result No

---

Read-out: BCL2L11 (gene 10018)
Test: LTEA_HepaRG_BCL2L11: Life Technologies and Expression Analysis (LTEA) Assay for Bcl-2 (BCL2L11) gene using HepaRG (AID 2283473)
Details: mRNA level, 48 h; actives raise or lower the signal
Procedure: LTEA_HepaRG is a cell based, multiplexed-readout assay that uses HepaRG, a human liver cell line, with measurements taken at 48 hours after chemical dosing on a 96-well plate.LTEA_HepaRG_BCL2L11 is one of 102 assay component(s) measured in the LTEA HepaRG cell culture assay. It is a marker of Cell proliferation, survival, death.Data from the assay component LTEA_HepaRG_BCL2L11 was analyzed into 1 endpoint. […]
Active and inactive are the calls of the source. The calls were made as follows: active = hit-call score of the fitted dose curve at least 0.9, where 1 is the maximum; inactive = score below 0.9.
Entry note: the call must match one of T (active), F (inactive)

## Task // return assay outcome for `c1ccc2occc2c1`
## Result F

Further cases:
## Task Please share the test call associated with `OCC(CO)n1cnc(-c2ccc(F)cc2)c1-c1ccnc(Oc2ccccc2)n1` .
## Result F

## Task Outcome logged for `CC(C)c1cccc(C(C)C)c1NC(=O)NS(=O)(=O)c1cc(C(C)(C)O)co1` in this assay:
## Result F

## Task What did the test return for `CCCCCCCCCC[N+](C)(C)[O-]` ?
## Result F

## Task State the result this test recorded for `COC(=O)CCCC(=O)OC` .
## Result F

## Task What classification did `CC(N)=O` end up with in this test?
## Result F

## Task Hi team, can someone confirm the assay call for `COc1ccc(C(=O)Nc2nc3ccccc3c(NCc3ccccc3)c2C#N)cc1` ?
## Result T

## Task Record lookup: outcome of this test for `CN(C)CCCN(C)CCCN(C)C` ?
## Result F

## Task Please indicate how the test categorized CC(COCC(C)OC(=O)c1ccccc1)OC(=O)c1ccccc1 (centres undefined) .
## Result F

## Task Could you kindly confirm the outcome this assay logged for C#CC(O)C(CC)CCCC (centres undefined) ?
## Result F

## Task Tell me the recorded outcome of this test for CC(=O)CC(c1ccccc1)c1c(O)c2ccccc2oc1=O (centres undefined) .
## Result F

## Task What classification did `CC(=O)[C@@]1(O)CC[C@H]2[C@@H]3CCC4=CC(=O)CC[C@]4(C)[C@H]3CC[C@@]21C` end up with in this test?
## Result F

## Task What did this assay record as the result for `O=C(O)c1[nH]n(-c2ccc(S(=O)(=O)O)cc2)c(=O)c1N=Nc1ccc(S(=O)(=O)O)cc1` ?
## Result F

## Task Status in this test for `CC(=O)OCC(COC(C)=O)OC(C)=O` ?
## Result F

---

assay: BSK_hDFCGF_SRB: Viability Assessment in the BioMAP Diversity Plus: hDFCGF Assay (AID 2283061); conditions: primary human foreskin fibroblasts;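 further: cells exposed to compound for 24 h before the read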
Calls of active or inactive are those of the source. How the source made its calls: active means hit-call score of the fitted dose curve at least 0.9, where 1 is the maximum; inactive means score below 0.9.
Just give me one of these, please: y for active, n for inactive

Reference set (5 entries):
## Task In this assay, the call recorded for `Cc1cn([C@H]2C=C[C@@H](CO)O2)c(=O)[nH]c1=O` was what?
## Result n

## Task What outcome does the record of this test show for `CCCCCCC(C=O)=Cc1ccccc1` ?
## Result y

## Task What was the test verdict on `CC(N)=O` ?
## Result n

## Task Which result was noted for this compound in the test: `COC(=O)CCC(=O)OC`
## Result n

## Task Answer briefly: the call reported for `O=C(O)c1[nH]n(-c2ccc(S(=O)(=O)O)cc2)c(=O)c1N=Nc1ccc(S(=O)(=O)O)cc1` in this assay.
## Result n

We next turn to a different compound, shown below.
## Task Recorded test outcome, item `OCC(CO)n1cnc(-c2ccc(F)cc2)c1-c1ccnc(Oc2ccccc2)n1`
## Result n

---

assay: Tanguay_ZF_120hpf_PIG_legacy: (Legacy) Oregon State University Tanguay Lab 120 Hour Post-fertilization zebrafish Assay for Pigmentation Malformation (AID 2283650);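 further: dechorionated Tropical 5D zebrafish embryos exposed singly from 6 to 120 hpf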
Records with an inconclusive call do not appear. The source made the active and inactive calls. How the source made its calls: active means hit-call score of the fitted dose curve at least 0.9, where 1 is the maximum; inconclusive means response in the unintended direction; inactive means score below 0.9.
observable: outcome

Just so you know, measured outcome for `Cc1occc(=O)c1O` came out at inactive

For this compound ( `Cc1cc(Cc2ccc(N)c(C)c2)ccc1N` ), measured outcome is inactive

The compound listed as `CC(=O)OCC(COC(C)=O)OC(C)=O` shows outcome equal to inactive

---

read-out: Transforming Growth Factor (TGFA), TGFA (gene 7039); assay: LTEA_HepaRG_TGFA: Life Technologies and Expression Analysis (LTEA) Assay for Transforming Growth Factor (TGFA) using HepaRG (AID 2283532); details: mRNA level, 48 h; actives raise or lower the signal
The source made the active and inactive calls. How the source made its calls: active means hit-call score of the fitted dose curve at least 0.9, where 1 is the maximum; inactive means score below 0.9.
Permitted responses: 1 (active), 0 (inactive)

## Task Returns: the outcome recorded for `CCOCCOCCO` in this assay.
## Result 0

## Task // return assay outcome for CC(=O)CC(c1ccccc1)c1c(O)c2ccccc2oc1=O (stereo not given)
## Result 0

## Task Write down the call the test reported for this compound. Item: `CC(=O)[C@@]1(O)CC[C@H]2[C@@H]3CCC4=CC(=O)CC[C@]4(C)[C@H]3CC[C@@]21C`
## Result 0

Continuing:
## Task Recorded test outcome, item `COc1ccc(C(=O)Nc2nc3ccccc3c(NCc3ccccc3)c2C#N)cc1`
## Result 0

## Task Just curious, what result did CC(C)NCC(O)c1ccc(O)c(O)c1 (stereo not given) get here?
## Result 0

## Task Assay result, entry `CCCCCCCCCC[N+](C)(C)[O-]` — outcome?
## Result 0

## Task Would you mind telling me which call this test gave CC(COCC(C)OC(=O)c1ccccc1)OC(=O)c1ccccc1 (stereo not given) ?
## Result 0

## Task // param item: `Cc1cn([C@H]2C=C[C@@H](CO)O2)c(=O)[nH]c1=O` ; yields the recorded call
## Result 0

---

read-out: Fatty acid synthase (Homo sapiens); experiment: LTEA_HepaRG_FASN: Life Technologies and Expression Analysis (LTEA) Assay for Fatty Acid Synthase (FASN) using HepaRG (AID 2283448); conditions: mRNA level, 48 h; actives raise or lower the signal
Activity calls are given as the source filed them. Rule for the calls: active = hit-call score of the fitted dose curve at least 0.9, where 1 is the maximum; inactive = score below 0.9.
Assign a class; possible classes are yes for active, no for inactive

Use these answered entries as a reference point.
## Task Would you mind telling me which call this test gave CCCCCCC(CCCCCCCCCCC(=O)OCC(COC(C)=O)OC(C)=O)OC(C)=O (stereo not given) ?
## Result no

## Task For `CC(C)(C)c1ccccc1` , what call appears in the results of this test?
## Result no

## Task Entry CC(C)NCC(O)c1ccc(O)c(O)c1 (stereo not given) : call = ?
## Result yes

## Task # fetch the recorded call for `CCCCOC(=O)CCCCC(=O)OCCCC` here
## Result no

Proceed to the following item.
## Task Write down the call the test reported for this compound. Item: `COc1ccc(OC(F)(F)F)cc1CN[C@H]1CCCN[C@H]1c1ccccc1`
## Result yes

---

test: ATG_MRE_CIS: Attagene CIS-FACTORIAL HepG2 Assay for human Metal Responsive Element (MRE) (AID 2282954); details: HepG2 MRE cis-reporter transcription, Attagene multiplex; actives raise or lower the signal
Active and inactive are the calls of the source. The calls were made as follows: active = hit-call score of the fitted dose curve at least 0.9, where 1 is the maximum; inactive = score below 0.9.
Output constraint: value belongs to active, inactive

Please review the entries below; each comes with its answer.
## Task Hi team, can someone confirm the assay call for `C/C=C/C=C/C(=O)O` ?
## Result inactive

## Task Look up the recorded call for `CC(N)=O` in this test.
## Result inactive

## Task Recorded test call requested for `O=C(Oc1ccccc1)c1cccc(C(=O)Oc2ccccc2)c1`
## Result inactive

## Task What did the test return for `COC(=O)[C@H]1[C@H]2C[C@@H]3c4[nH]c5cc(OC)ccc5c4CCN3C[C@H]2C[C@@H](OC(=O)c2cc(OC)c(OC)c(OC)c2)[C@@H]1OC` ?
## Result active

## Task Answer briefly: the call reported for `CS(=O)(=O)c1ccc([C@@H](C[C@H]2CCC(=O)C2)C(=O)Nc2cnccn2)cc1Cl` in this assay.
## Result inactive

## Task Can you look up the reported call for `O=NO` for me?
## Result inactive

More entries:
## Task Could you please tell me the result logged for `NC=O` in this assay?
## Result inactive

## Task Hey, what did the test say about `CCCC[C@H]1CN(CC2CCOCC2)C(=O)OC12CCN(C1(C)CCN(C(=O)c3c(C)ncnc3C)CC1)CC2` ?
## Result inactive

## Task Lab log entry: `COC(=O)CCCC(=O)OC` — outcome as called in the assay?
## Result inactive

## Task Just curious, what result did `CSc1ccc(Oc2ccc(S(N)(=O)=O)cc2CN(C)C)cc1C` get here?
## Result inactive

## Task Hi, do you know how `NC(=Nc1ccccc1)Nc1ccccc1` came out in this test?
## Result active

## Task How did this test come out for `CN(C)CCCN1c2ccccc2Sc2ccc(Cl)cc21` ?
## Result active
